- system tested: native Tsal proteins in G. m. morsitans saliva (Glossina morsitans morsitans (endogenous in saliva))
- measurement protocol: SPR; 4000 RU G. m. morsitans saliva amine-coupled (10 mM sodium acetate pH 4.5) on a CM5 chip; purified Nb analytes 500 to 0.976 nM; BIAcore T200; contact 180 s, dissociation 600 s, 10 ul/min; Langmuir 1:1 fit
measurement type: pKd
The scale used: pKd is minus the common logarithm of the concentration in molar units.

Record excerpt, results attached:
{"binder": "TsalNb-12 (VHH) VHH: QVQLQESGGGLVQPGGSLRLSCTASGSIFSINYANWYRQAPGKQRELVAGITSDGSTNYADSVKGRFTISRDNAKNTVYLQMNRLTPEDTAVYYCKPRAWLTGRWENYWGQGTQVTVSS", "pKd": 9.33}
{"binder": "TsalNb-3 (VHH) VHH: QVQLQESGGGLVQVGGSLRLSCAVSGSIFSNNYMGWYRQAPGKQRELVAGITSGGSTNYADSVKGRFTISRDNAKNTVYLQMNSLLPEDTAVYYCKPRGWLTGRWENYWGQGTQVTVSS", "pKd": 9.27}
{"binder": "TsalNb-5 (VHH) VHH: QVQLQESGGGLVQPGGSLRLSCAGSGLTLDYYAMGWYRQAPGKQREGVSCITSSGGRTNYADSVKGRFTISRDNAKNTVSLQMNSLKPEDTAVYYCAATEWLAGTKCLLSHEYDYWGQGTQVTVSS", "pKd": 8.36}
{"binder": "TsalNb-8 (VHH) VHH: QVQLQESGGGLVQPGGSLRLSCAASVLTLDYYAMAWYRQAPGKQREGVSCITSSGGRTNYADSVKGRFTISRDNAKNMVYLQMNSLKPEDTAVYYCAATEWLAGTKCLSSHEYDYWGQGTQVTVSS", "pKd": 7.74}

Lab note: next binder to report on.
### Prompt Need pKd of TsalNb-1 (VHH) VHH: QVQLQESGGGLVQVGGSLRLSCTASGSIFSINYANWYRQAPGKQRELVAGITSDGSTNYADSVKGRFTISRDNAKNTVYLQMNRLTPEDTAVYYCKPRAWLTGRWENYWGQGTQVTVSS , thanks.
### Response 9.36
